Answer each item with its documented GI50.
- System: SN12C
- testDetails: NCI tumour cell line growth inhibition, 48 h
The source made the active and inactive calls. Cut-off read from the data, not from the text of the source: active = GI50 up to about 1.1 µM and inactive = higher.

Below, each entry is followed by its recorded GI50 result.
                                   compound  assaytarget           testresult
0  COc1ccc(Cc2nn(C3OC(COC(C)=O)C(OC(C)=O)C(OC(C)=O)C3OC(C)=O)c(=S)n(-c3ccc(OC)cc3)c2=O)cc1 (centres undefined)        SN12C  > 100 µM (inactive)
1  Clc1cc(Cc2cc(Cl)c(Cl)c3c2OCOC3)c2c(c1Cl)COCO2        SN12C   58.6 µM (inactive)
2  CC(=O)Oc1cc(C)c2c(c1OC(C)=O)CC1(O2)[C@@H](C)CCC2[C@@]3(C)CC[C@H](OC(C)=O)C(C)(C)C3CC[C@]21C (some centres undefined)        SN12C   2.98 µM (inactive)

Okay, next one:
[Q] What value of GI50 has been recorded for this entry: CCOC(=O)C(Cc1ccc(N=NN(C)C)cc1)NC(=O)CC1c2ccccc2-c2ccccc21 (centres undefined)
[A] > 100 µM (inactive)
